The measured values listed here are drawn from patent US7339042B2.

- PROTOCOL DESCRIPTION: Fusion peptide cell killing, propidium iodide/FACS viability, T98G cells
- Type: cell-based, human
- RECORDED CONDITIONS: peptides in complete media for 1 hr, Table 2, read-out: % Viable Cells

RECORD SMILES | viability [%]
C[C@H](N)C(=O)NCC(=O)NCC(=O)NCC(=O)N[C@@H](Cc1ccc(O)cc1)C(=O)NCC(=O)N[C@@H](CCCNC(=N)N)C(=O)N[C@@H](CCCCN)C(=O)N[C@@H](CCCCN)C(=O)N[C@@H](CCCNC(=N)N)C(=O)N[C@@H](CCCNC(=N)N)C(=O)N[C@@H](CCC(N)=O)C(=O)N[C@@H](CCCNC(=N)N)C(=O)N[C@@H](CCCNC(=N)N)C(=O)N[C@@H](CCCNC(=N)N)C(=O)O | 94.9
